The origin of these recorded values is ChEMBL document CHEMBL2346545.

Attribute: viability at 20 µM
assay: Cytotoxicity against mouse BV2 cells assessed as cell viability at 20 uM by MTT assay; assay type: cell-based, BV-2; details: read-out: Activity

# CHEM SMILES, viability at 20 µM / %
data = [
    ("COC(=O)[C@]1(O)C[C@@H](O)[C@@H](O)[C@H](OC(=O)/C=C/c2ccc(O)cc2)C1", 109),
    ("COC(=O)[C@]1(O)C[C@@H](O)[C@@H](O)[C@H](OC(=O)/C=C\\c2ccc(O)c(O)c2)C1", 90.6),
    ("COC(=O)[C@@]1(O)C[C@@H](O)[C@H](OC(=O)/C=C/c2ccc(O)c(O)c2)[C@H](OC(=O)/C=C/c2ccc(O)c(O)c2)C1", 96.8),
    ("O=C(/C=C\\c1ccc(O)cc1)O[C@@H]1C[C@](OC(=O)/C=C/c2ccc(O)cc2)(C(=O)O)C[C@@H](O)[C@H]1O", 98.1),
    ("CO[C@@H](CC(=O)O[C@@H]1C[C@](OC(=O)/C=C/c2ccc(O)c(O)c2)(C(=O)O)C[C@@H](O)[C@H]1O)c1ccc(O)c(O)c1", 93.2),
    ("COC(=O)[C@]1(O)C[C@@H](O)[C@@H](OC(=O)/C=C/c2ccc(O)cc2)[C@H](O)C1", 108),
    ("COC(=O)[C@]1(O)C[C@@H](O)[C@@H](O)[C@H](OC(=O)/C=C\\c2ccc(O)cc2)C1", 109),
]

====

// viability at 20 µM lookup, one value per entry
assay: Cytotoxicity against mouse BV2 cells assessed as cell viability at 20 uM by MTT assay; format: cell-based, BV-2; conditions: read-out: Activity

# COMPOUND, viability at 20 µM
data = [
    ("O=C(/C=C\\c1ccc(O)cc1)O[C@@H]1C[C@](OC(=O)/C=C\\c2ccc(O)cc2)(C(=O)O)C[C@@H](O)[C@H]1O", "96%"),
    ("O=C(/C=C/c1ccc(O)c(O)c1)O[C@@H]1C[C@](OC(=O)/C=C/c2ccc(O)c(O)c2)(C(=O)O)C[C@@H](O)[C@H]1O [1,5-O-TRANS-DICAFFEOYLQUINIC ACID]", "93.7%"),
    ("COC(=O)[C@]1(O)C[C@@H](O)[C@@H](OC(=O)/C=C/c2ccc(O)c(O)c2)[C@H](O)C1", "92.6%"),
    ("COC(=O)[C@]1(O)C[C@@H](OC(=O)/C=C/c2ccc(O)c(O)c2)[C@@H](O)[C@H](OC(=O)/C=C/c2ccc(O)c(O)c2)C1", "91.1%"),
    ("COC(=O)[C@]1(O)C[C@@H](O)[C@@H](OC(=O)/C=C/c2ccc(O)c(O)c2)[C@H](OC(=O)/C=C/c2ccc(O)c(O)c2)C1", "92.2%"),
    ("CNC(=N)NCCC[C@H](N)C(=O)O", "103%"),
    ("COC(=O)[C@]1(O)C[C@@H](O)[C@@H](O)[C@H](OC(=O)/C=C/c2ccc(O)c(O)c2)C1", "95.3%"),
    ("O=C(/C=C/c1ccc(O)cc1)O[C@@H]1C[C@](OC(=O)/C=C/c2ccc(O)c(O)c2)(C(=O)O)C[C@@H](O)[C@H]1O", "94.3%"),
    ("CO[C@@H](CC(=O)O[C@@]1(C(=O)O)C[C@@H](O)[C@@H](O)[C@H](OC(=O)/C=C/c2ccc(O)c(O)c2)C1)c1ccc(O)c(O)c1", "90.9%"),
]

====

Some compounds, each annotated with its measured IC50.
test system: RAW264.7; assay: Anti-neuroinflammatory activity in mouse RAW264.7 cells assessed as inhibition of LPS-induced nitric oxide production; type: functional, cell-based
MEASURE: IC50 (µM)

# CHEM SMILES, TARGET SYSTEM, MEASURE, UNIT ANNOTATION, QUANTITATIVE READOUT
rows = [
    ("COC(=O)[C@]1(O)C[C@@H](OC(=O)/C=C/c2ccc(O)c(O)c2)[C@@H](O)[C@H](OC(=O)/C=C/c2ccc(O)c(O)c2)C1", "RAW264.7", "IC50", "µM", 42.9),
    ("CO[C@@H](CC(=O)O[C@@H]1C[C@](OC(=O)/C=C/c2ccc(O)c(O)c2)(C(=O)O)C[C@@H](O)[C@H]1O)c1ccc(O)c(O)c1", "RAW264.7", "IC50", "µM", 175),
]
